meta.source: the METLIN SMRT retention time set (Domingo-Almenara et al. 2019)

Test: gradient 5% acetonitrile 3 min, to 50% in 2 min, to 85% in 15 min, held 3 min, 100 µL/min
Conditions: column: Zorbax Extend-C18 2.1 x 50 mm; eluents: water / acetonitrile, 0.1% formic acid
ASSAY READOUT: RP-LC retention time (s)

[[record]]
compound = "COc1ccccc1N1CCN(C(=O)c2cn3ccccc3n2)CC1"
measured = 603

[[record]]
compound = "Cc1ccc(NS(=O)(=O)c2cc(-c3cc(C(F)(F)F)on3)sc2C)cc1C"
measured = 1200

[[record]]
compound = "Cc1cccc2c(=O)n(C3CCN(C(=O)Nc4ccc5c(c4)OCCO5)CC3)cnc12"
measured = 766

[[record]]
compound = "CC(C)(C)NC(=O)c1ccc2c(c1)CCCN2S(C)(=O)=O"
measured = 746

[[record]]
compound = "CN(C)c1ccc(CNC(=O)C2CCN(S(=O)(=O)c3ccc4[nH]c(=O)ccc4c3)CC2)cc1"
measured = 580

[[record]]
compound = "Cc1nn2c(CNS(=O)(=O)c3ccccc3)c(-c3ccccc3)nc2s1"
measured = 818

[[record]]
compound = "COc1ccc(CNC(=O)Cn2nc3c(N4CCCCCC4)nccn3c2=O)cc1"
measured = 679

[[record]]
compound = "O=C(NC1CCCC1)N1CCC(OCc2ccccc2)C1 (stereo not given)"
measured = 834

[[record]]
compound = "Cc1ccc(NC(=O)N2CCC(n3cnc4cc(Cl)ccc4c3=O)CC2)cc1"
measured = 856

[[record]]
compound = "CCc1cc(=O)n(CC(=O)Nc2ccc(C)c(C)c2)c(N2CCOCC2)n1"
measured = 798

